What IC50 was measured for each of the following?
target: Substance-P receptor (Homo sapiens); assay: Binding affinity against human Tachykinin receptor 1 expressed in CHO cells was measured by its ability to displace [125I]- Tyr-8 substance P.; format: cell-based
Number plus unit, in that order.

Please give the measured IC50 for this compound: CN(C)CCCC(=O)N[C@@H](Cc1c[nH]c2ccccc12)C(=O)CCc1cc(C(F)(F)F)cc(C(F)(F)F)c1
0.7 nM

Can you look up the measured IC50 of O=C(CCc1ccncc1)N[C@@H](Cc1c[nH]c2ccccc12)C(=O)CCc1cc(C(F)(F)F)cc(C(F)(F)F)c1 for me?
0.47 nM

# input compound: O=C(CCC1CCNCC1)N[C@@H](Cc1c[nH]c2ccccc12)C(=O)CCc1cc(C(F)(F)F)cc(C(F)(F)F)c1 ; wanted: its IC50
0.37 nM

What IC50 value was documented for this compound, Cc1cc(C)cc(CN(C)C(=O)[C@H](Cc2c[nH]c3ccccc23)NC(=O)c2ccccc2)c1 ?
1030 nM

Can you share its IC50? I mean this compound: O=C(CN1CCOCC1)N[C@@H](Cc1c[nH]c2ccccc12)C(=O)CCc1cc(C(F)(F)F)cc(C(F)(F)F)c1
3.5 nM

What IC50 value was documented for this compound, O=C(Cc1ccncc1)N[C@@H](Cc1c[nH]c2ccccc12)C(=O)CCc1cc(C(F)(F)F)cc(C(F)(F)F)c1 ?
0.5 nM

Bench note: what IC50 did O=C(CCN1CCCCC1)N[C@@H](Cc1c[nH]c2ccccc12)C(=O)CCc1cc(C(F)(F)F)cc(C(F)(F)F)c1 show?
0.6 nM

Which IC50 value is on record for O=C(CCc1cc(C(F)(F)F)cc(C(F)(F)F)c1)[C@H](Cc1c[nH]c2ccccc12)NC(=O)C12CCN(CC1)CC2 ?
0.9 nM

----------
target: Substance-P receptor (Homo sapiens, UniProt P25103, Q165A); assay: Binding affinity against Gln165Ala mutant type human Tachykinin receptor 1 expressed in CHO cells was measured by its ability to displace [125I]- Tyr-8 substance P.
Sequence (P25103 whole entry Q165A): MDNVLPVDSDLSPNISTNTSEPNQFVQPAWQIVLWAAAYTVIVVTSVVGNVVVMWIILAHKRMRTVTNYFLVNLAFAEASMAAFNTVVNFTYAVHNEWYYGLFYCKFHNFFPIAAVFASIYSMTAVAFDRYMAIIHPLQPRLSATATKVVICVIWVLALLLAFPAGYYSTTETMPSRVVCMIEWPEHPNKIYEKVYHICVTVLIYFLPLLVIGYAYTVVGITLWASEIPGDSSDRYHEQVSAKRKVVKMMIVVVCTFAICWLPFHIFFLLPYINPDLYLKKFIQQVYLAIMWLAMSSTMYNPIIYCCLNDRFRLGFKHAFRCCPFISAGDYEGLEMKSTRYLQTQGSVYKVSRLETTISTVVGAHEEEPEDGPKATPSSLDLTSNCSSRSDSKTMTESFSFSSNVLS
Please provide measured pIC50 for the entries that follow.
# log scale: pIC50 equals minus log10 of the concentration in mol/L

Consider the molecule shown here: O=C(Cc1ccncc1)N[C@@H](Cc1c[nH]c2ccccc12)C(=O)CCc1cc(C(F)(F)F)cc(C(F)(F)F)c1 What is its recorded pIC50?
8.00

Record request: pIC50 value, item O=C(CN1CCOCC1)N[C@@H](Cc1c[nH]c2ccccc12)C(=O)CCc1cc(C(F)(F)F)cc(C(F)(F)F)c1
8.40

Given O=C(CCCN1CCOCC1)N[C@@H](Cc1c[nH]c2ccccc12)C(=O)CCc1cc(C(F)(F)F)cc(C(F)(F)F)c1 , state its recorded pIC50.
8.85

Request the reported pIC50 associated with FC(F)(F)c1cccc(CO[C@H]2C3CCN(CC3)[C@H]2C(c2ccccc2)c2ccccc2)c1
5.68

State the recorded pIC50 for this entry: O=C(CCc1cc(C(F)(F)F)cc(C(F)(F)F)c1)[C@H](Cc1c[nH]c2ccccc12)NC(=O)C12CCN(CC1)CC2
8.10
